Biological target: FAK Kinase Domain (KD) (Homo sapiens, UniProt Q05397)
Sequence (Q05397 422-680 limits assumed, species assumed): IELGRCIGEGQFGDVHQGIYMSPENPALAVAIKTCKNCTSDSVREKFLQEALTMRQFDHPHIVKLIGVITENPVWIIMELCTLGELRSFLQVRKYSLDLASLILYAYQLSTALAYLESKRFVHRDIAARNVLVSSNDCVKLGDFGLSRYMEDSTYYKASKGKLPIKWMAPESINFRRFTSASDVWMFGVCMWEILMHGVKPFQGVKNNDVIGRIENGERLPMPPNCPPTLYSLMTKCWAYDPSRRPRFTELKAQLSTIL
MEASURED_METRIC: IC50 (nM)

(A) O=C(Nc1ccc(N2CCOCC2)c(F)c1)c1c(NCc2ccccn2)cc[nH]c1=O
(B) O=C(Nc1cccc(N2CCCC2)c1)c1c(NC[C@@H](O)c2ccccc2)cc[nH]c1=O
Challenge: I'm curious whether A or B has the smaller IC50 number. Which is it? Return value: the label identifying the chosen record.
Response given: B

Data provenance: patent US20110218199A1
